Values compiled from PubChem BioAssay (NCI).

- Test system: K-562 leukemia
- assay.procedure: NCI tumour cell line growth inhibition, 48 h
This listing pairs compounds with measured TGI.
assay.metric: TGI

compound=CC(C)c1nc(N(C)S(C)(=O)=O)nc(-c2ccc(F)cc2)c1/C=C/[C@@H](O)C[C@@H](O)CC(=O)O result_value="> 100 µM"
compound=N#C/C(=C\c1ccc([N+](=O)[O-])s1)c1nc2cc(Cl)ccc2s1 result_value="> 100 µM"
compound=O=S(=O)(O)c1cccc2cccc(N=Nc3c(O)ccc4ccccc34)c12 result_value="> 100 µM"
compound=O=c1cc(-c2ccc(O)cc2)oc2cc(O[C@@H]3O[C@H](CO)[C@@H](O)[C@H](O)[C@H]3O)cc(O)c12 result_value="> 100 µM"
compound=O=C(/C=C/c1ccc(O)c(O)c1)NCc1c[nH]c2ccccc12 result_value="> 100 µM"
compound=COc1ccccc1N=Nc1c(O)c(S(=O)(=O)O)cc2cc(S(=O)(=O)O)ccc12 result_value="> 100 µM"
compound=Cc1cc(Cl)ccc1OCC(=O)Nc1nc(N)nc(N)n1 result_value="> 100 µM"
compound=CCCCCCCCCC(=O)N[C@@H](c1ccco1)[C@@H](O)C(=O)O[C@H]1C[C@@]2(O)[C@@H](OC(=O)c3ccccc3)[C@@H]3[C@]4(OC(C)=O)CO[C@@H]4C[C@H](O)[C@@]3(C)C(=O)[C@H](OC(C)=O)C(=C1C)C2(C)C result_value="> 50 µM"
compound=Cn1c(=O)c2[nH]c(SCCN3CCOCC3)nc2n(C)c1=S result_value="> 100 µM"
compound=Cc1cc(C)c2c(n1)sc1c(N)ncnc12 result_value="> 25 µM"
compound=C=C1C(=O)O[C@H]2[C@H]1CC/C(COC(=O)NCc1ccc(OC)cc1)=C\CC[C@@]1(C)O[C@@H]21 result_value="9.08 µM"
compound=CNNC(=N\S(=O)(=O)c1cc(C)c(Cl)cc1SCc1ccccc1)/N=C/c1ccc([N+](=O)[O-])s1 result_value="> 100 µM"
compound="CC1(C)C(CCO)CC1n1ccc(=O)[nH]c1=O (centres undefined)" result_value="72.4 µM"
compound=O=c1c2cc(-c3ccccc3)sc2ncn1Cc1ccc(Cl)c(Cl)c1 result_value="> 100 µM"
compound=O=c1c2ccccc2nc(-c2ccccc2)n1NC(=S)Nc1ccc(Cl)cc1 result_value="> 100 µM"
compound=C1=C/COCc2cc(ccc2OCCN2CCCC2)Nc2nccc(n2)-c2ccc(o2)COC/1 result_value="> 33.1 µM"
compound="CC(=O)OC1C2CCC3C(C)(O)C4CC(O)C(C)(C)C4(O)C(O)CC13CC2(C)O (centres undefined)" result_value="> 100 µM"
compound=CCc1cccc(C)c1N1C(=O)C(=O)C(c2nc3ccccc3o2)C(=O)C1=O result_value="> 100 µM"
compound=[O-]c1ccccc1C=Nc1ccc2c(c1)CCC2.[O-]c1ccccc1C=Nc1ccc2c(c1)CCC2.[O]=[U+2]=[O] result_value="> 100 µM"

----------
- System: PC-3 prostate
- assay.procedure: NCI tumour cell line growth inhibition, 48 h; in the data active means GI50 below about 0.43 µM; inactive means the rest
Outcome codes: active, inactive

compound="C=C(C)C1CC/C(C)=C/CC[C@]2(C)O[C@@H]2CCC2=CC1OC2=O (stereo partly drawn)" class_name=inactive
compound=Cc1ccc2nc(-c3ccc(OCC(=O)N=Nc4c(O)[nH]c5ccccc45)cc3)[nH]c2c1 class_name=inactive
compound=C=C1C(=O)O[C@H]2[C@H]1CC/C(COC(=O)NCc1ccc(OC)cc1)=C\CC[C@@]1(C)O[C@@H]21 class_name=inactive
compound=NS(=O)(=O)c1ccc(N=Nc2c(O)[nH]c3ccc(C(=O)NCc4ccncc4)cc23)cc1 class_name=inactive
compound=C1=C/COCc2cc(ccc2OCCN2CCCC2)Nc2nccc(n2)-c2ccc(o2)COC/1 class_name=inactive
compound=C#CCNC(=S)N/N=C(\C)c1ccccn1 class_name=active
compound=CC[C@@]1(OC(=O)CN)C(=O)OCc2c1cc1n(c2=O)Cc2c-1nc1cc3c(cc1c2CCl)OCO3 class_name=active
compound=COc1cc2ncnc(-n3ncc4cc(NC(=O)Nc5ccc(Cl)c(Cl)c5)ccc43)c2cc1OC class_name=inactive
compound="COC(=O)c1cc2c(cc1Cl)SC1=NN(C)S(=O)N1S2(=O)=O (stereo not drawn)" class_name=inactive
compound=Cn1cccc1-c1cc(-c2ccccc2)[nH]c(=O)c1C#N class_name=inactive
compound=CCN(Cc1cc(F)ccc1F)c1ccc(CO)c(Cl)c1 class_name=inactive
compound=CN1CCN(Cc2ccc(NC(=O)c3cncc(C#Cc4cnc(N)cc4C#N)c3)cc2C(F)(F)F)CC1 class_name=inactive
compound="CCCCCN(CCCCC)CC(O)c1cc(Cl)ccc1OC (stereo not drawn)" class_name=inactive

----------
- Tested on: A549 NSCLC
- assay.procedure: NCI tumour cell line growth inhibition, 48 h
The entries below are paired with their reported GI50.
assay.metric: GI50

molecule=COc1cc2ncnc(-n3ncc4cc(NC(=O)Nc5ccc(Cl)c(Cl)c5)ccc43)c2cc1OC measurement_target="A549 NSCLC" result_value="2.69 µM"
molecule=COc1ccc(C(=O)c2cc3c(N)c(C(=O)Nc4ccccc4)sc3nc2C)cc1 measurement_target="A549 NSCLC" result_value="0.638 µM"
molecule=CSc1ncc(Br)c(Sc2nc(N)nc3nc[nH]c23)n1 measurement_target="A549 NSCLC" result_value="9.77 µM"
molecule=C=C/C(C)=C/C[C@]1(C)[C@H](C)[C@@H](OC(=O)CCC)[C@H](O)[C@@]23C(=C[C@H](OC)C[C@@H]12)[C@@H](OC(=O)CCC)O[C@H]3OC(C)=O measurement_target="A549 NSCLC" result_value="1.65 µM"
molecule=Cc1ccc2nc(-c3ccc(OCC(=O)N=Nc4c(O)[nH]c5ccccc45)cc3)[nH]c2c1 measurement_target="A549 NSCLC" result_value="2.38 µM"
molecule=c1cc(-c2nnc(SSc3ncnc4nc[nH]c34)o2)ccn1 measurement_target="A549 NSCLC" result_value="23 µM"
molecule=COc1ccc(NC(=O)/C=C(C)/C=C/C=C(C)/C=C/C2=C(C)CCCC2(C)C)cc1 measurement_target="A549 NSCLC" result_value="14.9 µM"
molecule=CCN1CCN(c2cc(C)nc(N(CCCNc3ccnc4cc(Cl)ccc34)Cc3ccc4c(c3)OCO4)n2)CC1 measurement_target="A549 NSCLC" result_value="3.67 µM"
molecule=Cc1cc(Nc2nc(C(=O)Nc3ccccc3)nc3ccccc23)n[nH]1 measurement_target="A549 NSCLC" result_value="13.9 µM"
molecule="NCCCCC1NC(=O)C(CC(=O)O)NC(=O)CNC(=O)C(CCCN=C(N)N)NC(=O)C(N)CSSCC(C(=O)O)NC(=O)C(CC(=O)O)NC(=O)C2CCCN2C(=O)CNC1=O (stereo not drawn)" measurement_target="A549 NSCLC" result_value="> 100 µM"
molecule=C=C1C(=O)O[C@H]2[C@H]1CC/C(COC(=O)NCc1ccc(OC)cc1)=C\CC[C@@]1(C)O[C@@H]21 measurement_target="A549 NSCLC" result_value="4.28 µM"
molecule=Oc1c(Cl)cc(Cl)c2ccc(Cn3cc(-c4cc(C(F)(F)F)cc(C(F)(F)F)c4)nn3)nc12 measurement_target="A549 NSCLC" result_value="15.8 µM"
molecule=CCOC(=O)c1c(C)n(Cc2ccc(Cl)cc2Cl)c2c1cc1oc(=O)c(=O)n3cnc2c13 measurement_target="A549 NSCLC" result_value="9.71 µM"
molecule="O=C1C2=C(C(=O)c3cnccc31)C1C=CC2CC1 (stereo not drawn)" measurement_target="A549 NSCLC" result_value="3.67 µM"
molecule=O=c1c2cc(-c3ccccc3)sc2ncn1Cc1ccc(Cl)c(Cl)c1 measurement_target="A549 NSCLC" result_value="18 µM"
molecule=N#C/C(=C\c1ccc([N+](=O)[O-])s1)c1nc2cc(Cl)ccc2s1 measurement_target="A549 NSCLC" result_value="3.12 µM"
molecule="CC1CN(S(=O)(=O)c2oc(-c3ccc(Cl)cc3)nc2C#N)CC(C)O1 (stereo not drawn)" measurement_target="A549 NSCLC" result_value="15.5 µM"
molecule=CCOc1ccc2c(c1)C(=O)c1c-2n(CCCBr)c(=O)c2cc([N+](=O)[O-])ccc12 measurement_target="A549 NSCLC" result_value="29 µM"

----------
- Test system: HT29 colon
- assay.procedure: NCI tumour cell line growth inhibition, 48 h
Listed here: items and their measured TGI.
assay.metric: TGI (µM)

compound=Cc1ccc(S(=O)(=O)N=NC=C2c3ccccc3N(O)c3ccccc32)cc1 measurement_target="HT29 colon" assay_metric=TGI readout_units=µM value_modifier== result_value=13.2
compound=COc1ccc(NC(=O)/C=C(C)/C=C/C=C(C)/C=C/C2=C(C)CCCC2(C)C)cc1 measurement_target="HT29 colon" assay_metric=TGI readout_units=µM value_modifier== result_value=10.2
compound="O=CC(O)C(O)C(O)C1CNC(=S)O1 (stereo not given)" measurement_target="HT29 colon" assay_metric=TGI readout_units=µM value_modifier=> result_value=100
compound=O=S1(=O)N(Cc2ccccc2)[C@@H](Cc2ccccc2)[C@H](O)[C@H](O)[C@H](Cc2ccccc2)N1Cc1ccccc1 measurement_target="HT29 colon" assay_metric=TGI readout_units=µM value_modifier== result_value=5.64
compound="O=C(C#Cc1ccccc1)N1c2ccccc2CC1c1c[nH]c2ccccc12 (stereo not given)" measurement_target="HT29 colon" assay_metric=TGI readout_units=µM value_modifier== result_value=40.6
